Where do these numbers come from? They come from ChEMBL document CHEMBL1151735.

Target: 11-beta-hydroxysteroid dehydrogenase 1 (Homo sapiens, UniProt P28845)
Sequence (P28845 whole entry): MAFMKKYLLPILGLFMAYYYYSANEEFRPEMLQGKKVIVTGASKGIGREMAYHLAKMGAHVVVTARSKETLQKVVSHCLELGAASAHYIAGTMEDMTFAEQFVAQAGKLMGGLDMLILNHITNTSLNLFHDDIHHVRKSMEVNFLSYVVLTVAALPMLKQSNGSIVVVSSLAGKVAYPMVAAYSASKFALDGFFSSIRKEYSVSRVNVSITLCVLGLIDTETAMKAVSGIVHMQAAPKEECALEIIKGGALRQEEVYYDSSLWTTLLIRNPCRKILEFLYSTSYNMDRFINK
Assay: Inhibition of human 11beta-HSD1 expressed in CHO cells assessed as conversion of cortisone to cortisol by ELISA
pIC50: −log10 of the molar value.
observation.type: pIC50

Here's what some known entries look like.
C[C@H](NC1=NC(=O)C(C)(C2(O)CCCC2)S1)c1ccc(F)cc1 (stereo not given in full); 7.96
C[C@H](NC1=NC(=O)[C@@](C)(C(C)(C)O)S1)c1ccc(F)cc1; 6.52
C[C@H](NC1=NC(=O)C(C)(C2(O)CCC2)S1)c1ccc(F)cc1 (stereo not given in full); 7.49
C[C@H](NC1=NC(=O)C(C)(C(C)(C)O)S1)c1ccccc1Cl (stereo not given in full); 7.74
O=C(Nc1cccc(C(=O)N2CCC[C@@H]3CCCC[C@H]32)c1)c1ccccc1; 7.85
CC(C(=O)N[C@H]1C2CC3CC1C[C@](O)(C3)C2)N1CCN(c2ccc(C(F)(F)F)cn2)CC1 (stereo not given in full); 8.30
C[C@H](NC1=NC(=O)C(C)(C(C)(C)O)S1)c1ccc(F)cc1 (stereo not given in full); 7.29
C[C@H](NC1=NC(=O)[C@](C)(C(C)(C)O)S1)c1ccc(F)cc1; 7.47

[1] C[C@H](NC1=NC(=O)C(C)(C(C)(C)O)S1)c1ccccc1C(F)(F)F (stereo not given in full)
[2] C[C@H](NC1=NC(=O)C(C)(C(C)(C)O)S1)c1ccccc1F (stereo not given in full)
## Task Endpoint returns the identifier whose pIC50 is numerically larger, either 1 or 2 . Give the label under which the chosen entry appears.
## Result 1

====

Target: 11-beta-hydroxysteroid dehydrogenase 1 (Mus musculus, UniProt P50172)
Sequence (P50172 whole entry): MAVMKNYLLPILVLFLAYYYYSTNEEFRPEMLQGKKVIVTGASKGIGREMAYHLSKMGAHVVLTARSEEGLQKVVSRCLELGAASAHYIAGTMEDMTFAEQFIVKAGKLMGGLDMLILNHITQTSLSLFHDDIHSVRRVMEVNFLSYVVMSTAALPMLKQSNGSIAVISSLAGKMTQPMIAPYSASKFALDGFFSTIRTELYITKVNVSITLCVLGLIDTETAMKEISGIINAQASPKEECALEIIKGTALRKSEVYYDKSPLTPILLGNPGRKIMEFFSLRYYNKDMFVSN
Test: Inhibition of mouse 11beta-HSD1 expressed in CHO cells assessed as conversion of cortisone to cortisol by ELISA
observation.type: pIC50
// scale note: pIC50 = -log10(conc_M); give the bare number

## Task Entry under review: "C[C@H](NC1=NC(=O)[C@](C)(C(C)(C)O)S1)c1ccc(F)cc1" . Reported pIC50?
## Result 6.85
